Experimental target: UniProt:P11712
Sequence (P11712 whole entry): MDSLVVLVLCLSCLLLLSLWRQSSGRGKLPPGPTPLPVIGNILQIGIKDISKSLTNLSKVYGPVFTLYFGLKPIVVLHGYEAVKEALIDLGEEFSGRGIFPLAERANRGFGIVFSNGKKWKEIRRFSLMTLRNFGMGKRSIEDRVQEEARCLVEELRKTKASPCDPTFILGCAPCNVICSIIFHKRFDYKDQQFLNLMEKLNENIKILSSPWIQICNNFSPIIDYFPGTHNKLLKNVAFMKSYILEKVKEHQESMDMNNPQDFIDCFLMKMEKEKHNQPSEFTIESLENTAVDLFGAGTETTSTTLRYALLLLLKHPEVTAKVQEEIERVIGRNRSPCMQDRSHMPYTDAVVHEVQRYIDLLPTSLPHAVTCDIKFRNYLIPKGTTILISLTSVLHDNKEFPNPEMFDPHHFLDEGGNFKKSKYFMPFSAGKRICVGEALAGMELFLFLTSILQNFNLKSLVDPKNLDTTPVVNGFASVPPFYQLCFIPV
Protocol text: CYP inhibition, Vivid CYP450 screening kit
Condition parameters: human recombinant CYP2C9
pIC50: −log10 of the molar value.
Property label: pIC50

INPUT: Given COc1cc(OC)cc(N2CCN(C(=O)Nc3nc4cc(F)ccc4nc3OC)CC2)c1 , state its recorded pIC50.
OUTPUT: < 5.00

---

Protocol text: In vivo pharmacokinetic study, intravenous administration to rats
Condition parameters: Sprague-Dawley, rat, plasma; fasted male SD rats, intravenous 0.5 mg/kg, 24 h; BQL treated as 0
Property label: concentration at 24 h
Answer with the figure and its unit, nothing else.

INPUT: Query: concentration at 24 h; subject: COc1cc(OC)cc(N2CCN(C(=O)Nc3nc4cc(F)ccc4nc3OC)CC2)c1
OUTPUT: 0.3 ng/mL
